Value source: PubChem BioAssay (NCI)

# System: EKVX NSCLC
# assayProtocol: NCI tumour cell line growth inhibition, 48 h
GI50 values for the compounds below.
reportedMetric: GI50

compound	reportedMetric	recordedValue
Clc1ccc(Nc2nnc(COc3ccccc3)c3ccccc23)cc1	GI50	0.679 µM
Cc1cccc(Nc2ncc(-c3ccccc3)o2)c1	GI50	> 25 µM
O=C(O)[C@@H](Cc1ccccc1)NS(=O)(=O)c1ccc(-c2ccccc2)cc1	GI50	> 100 µM
C#Cc1cccc(NC(=O)C2CCCCN2C(=O)CCl)c1 (stereo not given)	GI50	> 82.5 µM
[N-]=[N+]=NCCCn1c2c(c3ccccc3c1=O)C(=O)c1cc3c(cc1-2)OCO3	GI50	> 100 µM
CCCCCCCC(=O)[O-].N.N.N.N.N.[Co+3].[O-][Cl+3]([O-])([O-])[O-]	GI50	> 100 µM
COc1cccc(/C=C/C(=O)c2cc3c(N)c(C(=O)Nc4ccccc4)sc3nc2C)c1	GI50	5.8 µM
C[C@H]1O[C@@H](O[C@H]2[C@@H](O)C[C@H](O[C@H]3[C@@H](O)C[C@H](O[C@H]4CC[C@]5(C)C6CC[C@]7(C)[C@@H](C8=CC(=O)OC8)CC[C@]7(O)C6CC[C@@H]5C4)O[C@@H]3C)O[C@@H]2C)C[C@H](O)[C@@H]1O (stereo not given in full)	GI50	0.0141 µM
CC(C)Cc1cc(-c2cccn2C)c(C#N)c(=O)[nH]1	GI50	> 100 µM
Cc1cc(C(=O)NOCCO)c(Nc2ccc(I)cc2F)n(C)c1=O	GI50	0.0233 µM
